System: MALME-3M melanoma
Experimental protocol: NCI tumour cell line growth inhibition, 48 h
TGI listing for selected compounds.

[
  {
    "Compound": "CC(C)c1ccc(NC(=O)Cc2ccc(Nc3ncnc4cc(-c5cnn(CCN(C)C)c5)ccc34)cc2)cc1",
    "Target of assay": "MALME-3M melanoma",
    "TGI": "> 10 µM"
  },
  {
    "Compound": "CCN(CC)C(=S)N/N=C(/c1ccccc1)c1ccccn1",
    "Target of assay": "MALME-3M melanoma",
    "TGI": "> 47.1 µM"
  },
  {
    "Compound": "COC(=O)N[C@H]1CCc2c(Cl)c(OC)c(OC)c(OC)c2-c2ccc(SC)c(=O)cc21",
    "Target of assay": "MALME-3M melanoma",
    "TGI": "30.5 µM"
  },
  {
    "Compound": "N#CC1=C(N)NC(=O)NC12Nc1ccccc1N2",
    "Target of assay": "MALME-3M melanoma",
    "TGI": "> 100 µM"
  },
  {
    "Compound": "CCCCn1c(=O)c(/C=C/C(=O)/C=C/c2cc3ccccc3n(CCCC)c2=O)cc2ccccc21",
    "Target of assay": "MALME-3M melanoma",
    "TGI": "5.33 µM"
  }
]

# input Query TGI on MALME-3M melanoma for NC(Cc1ccccc1)c1nccs1 (centres undefined)
# output > 100 µM

# input // fetch MALME-3M melanoma TGI for "CCOC(=O)/C=C/c1cccc(F)c1"
# output > 100 µM

# input Form: Entry = CCOC(=O)C1=C(C)NC(c2ccco2)=C(C#N)C1c1cccc([N+](=O)[O-])c1 (centres undefined) | System = MALME-3M melanoma | TGI = ____
# output 23.6 µM

# input Query for MALME-3M melanoma: what TGI does the record show for "C[N+](C)=c1ccc2nc3c(cc(NCCCNc4cc5oc6cc(=[N+](C)C)ccc-6nc5c5ccccc45)c4ccccc43)oc-2c1" ?
# output 4.45 µM

# input Which measured TGI belongs to "CC[C@H](NC(=O)OC(C)(C)C)C(=O)NCP(=O)(OCc1ccc([N+](=O)[O-])cc1)OCc1ccc([N+](=O)[O-])cc1" , tested on MALME-3M melanoma?
# output > 100 µM

# input Record "CSc1nc(=O)c2nc(-c3cccs3)c(-c3cccs3)nc2n1C" : what is its TGI with MALME-3M melanoma?
# output > 100 µM

# input Tell me reported TGI for "COc1ccc(-c2cc(=O)c3c(O)c(OC)c(OC)c(OC)c3o2)cc1" , tested with MALME-3M melanoma.
# output > 100 µM

###

Tested on: CAKI-1 renal
Experimental protocol: NCI tumour cell line growth inhibition, 48 h
Listed compounds paired with reported GI50

# input What GI50 value was documented for this compound, "C[N+](C)=c1ccc2nc3c(cc(NCCCNc4cc5oc6cc(=[N+](C)C)ccc-6nc5c5ccccc45)c4ccccc43)oc-2c1" ?
# output 12.7 µM

# input Please give the measured GI50 for this compound: "COc1ccc(S(=O)(=O)N(C(C)=O)c2ccccc2/C=C/c2cc[n+]([O-])cc2)cc1"
# output 0.588 µM

# input Any idea what GI50 was measured for CC(C)(C)OC(=O)Nc1ccc2c(c1)C(NC(=O)Nc1cccc(C#N)c1)CC(C)(C)O2 (stereo not drawn) ?
# output 2.49 µM

###

Test system: M14 melanoma
Experimental protocol: NCI tumour cell line growth inhibition, 48 h
Quick list: TGI per entry.

# input For the molecule COc1ccc([C@@H]2OC(=O)C3C2C(=O)O[C@H]3c2ccc(OC)c(OC)c2)cc1OC (stereo not given in full) , what TGI is on record?
# output > 100 µM

# input Param item = "CC(=O)Oc1ccn2nc(C)c(Br)c2c1" ; retrieve measured TGI.
# output > 100 µM

# input What does the record list as TGI for CN1c2ccccc2C2=C(c3ccccc3)CC[C@@H](C(=O)N3C4CC5CC[C@@]4(CS3(=O)=O)C5(C)C)[C@@H]21 (stereo not given in full) ?
# output > 100 µM

###

Property: TGI; scope: individual molecules
System: A498 renal
Experimental protocol: NCI tumour cell line growth inhibition, 48 h
Quick note: give the figure in µM, leave out the unit.

Known results for molecules:
[
  {
    "Smiles string": "COc1cc2c3c(n(CCCNCCCN)c(=O)c2cc1OC)-c1cc2c(cc1C3=O)OCO2",
    "Observed property": "TGI",
    "Result": 35.6
  },
  {
    "Smiles string": "CCN(CC)CCCCNc1c2ccc(Cl)cc2nc2ccc(OC)cc12",
    "Observed property": "TGI",
    "Result": 2.52
  },
  {
    "Smiles string": "CC(C)(C)OC(=O)N[C@@H](Cc1ccccc1)C(=O)N(Cc1ccccc1)C1(C(=O)NCc2ccccc2)CCN(Cc2ccccc2)CC1",
    "Observed property": "TGI",
    "Result": 6.36
  }
]

Below: the item to evaluate.
# input Can you look up TGI on A498 renal for "CC/C(=C/c1ccc(OC)cc1OC)[N+](=O)[O-]" ?
# output 10.2

###

Each entry below carries its recorded TGI.
Tested on: IGROV1 ovarian
Experimental protocol: NCI tumour cell line growth inhibition, 48 h

[
  {
    "Compound": "C=C(C)[C@H]1CC23C(=O)[C@@](C)(C[C@H]2C1(C)C)C(=O)C(C(=O)C(C)C)=C3O",
    "Observed property": "TGI",
    "Result": "32.7 µM"
  }
]

# input Requested read-out TGI, target or system IGROV1 ovarian, entry "C[C@]12C[C@H](O)[C@H]3[C@@H](CCC4=CC(=O)CC[C@@]43C)[C@@H]1CC[C@@H]2c1csc(-c2ccccc2)n1"
# output > 100 µM

# input Item: "CC(C)(C)c1ccnc(N=C2N=C(Nc3cc(C(C)(C)C)ccn3)c3ccccc32)c1" Test system: IGROV1 ovarian Read-out: TGI Value: ?
# output 72.1 µM

# input TGI of COC1(CC[C@H](C)COC2OC(CO)C(O)C(O)C2O)O[C@H]2C[C@H]3[C@@H]4CC=C5C[C@@H](OC6OC(CO)C(OC7OC(C)C(O)C(O)C7O)C(O)C6OC6OC(C)C(O)C(O)C6O)CC[C@]5(C)[C@H]4CC[C@]3(C)[C@H]2[C@@H]1C (stereo not given in full) on IGROV1 ovarian?
# output 20.1 µM

# input Recorded TGI for O=C1NC2C(O)CCCCC2C12CCCCC2 (stereo not given) with IGROV1 ovarian, please?
# output > 100 µM

# input Lookup: TGI / IGROV1 ovarian / "C[C@H]1C=C2C(=O)O[C@H]3CC[C@@H](C1)[C@@]23O"
# output 19 µM

# input For the record O=C1CSC(c2c[nH]c3ccccc23)N1c1ccc(Cl)cc1Cl (stereo not given) , what value of TGI is listed for IGROV1 ovarian?
# output > 100 µM

# input # query: TGI | item "COc1ccc(-c2cc(=O)c3c(O)c(OC)c(OC)c(OC)c3o2)cc1" | system: IGROV1 ovarian
# output > 100 µM

###

Tested on: OVCAR-8 ovarian
Experimental protocol: NCI tumour cell line growth inhibition, 48 h; in the data active = GI50 below about 0.43 µM; inactive = the rest
Would you mind answering with one of these outcomes? y (active), n (inactive)

The following compounds have reported results that may help.
[
  {
    "Smiles string": "CS(=O)(=O)N(c1cc(-c2ccc3ncnc(Nc4ccc(F)c(Cl)c4)c3c2)cnc1Cl)S(C)(=O)=O",
    "Class name": "n"
  },
  {
    "Smiles string": "CCn1c2ccccc2c2cc(C(=O)c3ccc(C)c4ccccc34)ccc21",
    "Class name": "n"
  },
  {
    "Smiles string": "Cc1cc(O)c(-c2ccc([C@@H](C)CN(C)C)cc2)c2c1[nH]c(=O)c1sccc12",
    "Class name": "n"
  },
  {
    "Smiles string": "O=C1c2cc3c(cc2-c2c1c1ccc(Cl)cc1c(=O)n2CCCn1ccnc1)OCO3",
    "Class name": "y"
  },
  {
    "Smiles string": "C1=CCCC=CCC1.C[PH+](C)C.C[PH+](C)C.C[PH+](C)C.[Cl-].[Ir]",
    "Class name": "n"
  }
]

--- query ---
# input Per the records of this test, what outcome belongs to "CNC(=O)c1cncc(/C=C/c2ccccc2Cl)c1" ?
# output n

###

Test system: SF-268 CNS
Experimental protocol: NCI tumour cell line growth inhibition, 48 h
Observed property: TGI

Worked examples follow.
[
  {
    "Compound": "N#Cc1cc(S(=O)(=O)Nc2nc3ccccc3o2)c(SCc2ccccc2)cc1Cl",
    "TGI": "> 100 µM"
  },
  {
    "Compound": "CCOC(=O)/C=C/c1cccc(F)c1",
    "TGI": "> 100 µM"
  },
  {
    "Compound": "CCCn1cc2c3c(cccc31)C1C=C(C)CN(C)C1C2 (configuration not stated)",
    "TGI": "47.2 µM"
  },
  {
    "Compound": "COc1ccc(S(=O)(=O)N(C(C)=O)c2ccccc2/C=C/c2cc[n+]([O-])cc2)cc1",
    "TGI": "> 10 µM"
  },
  {
    "Compound": "c1cncc(CSc2nc3ccccc3nc2-c2cccs2)c1",
    "TGI": "> 100 µM"
  },
  {
    "Compound": "O=C(NC(C(F)(F)F)(C(F)(F)F)P(=O)(Cc1ccccc1)Cc1ccccc1)C(C(F)(F)F)C(F)(F)F",
    "TGI": "59.4 µM"
  },
  {
    "Compound": "O=C1Nc2cc(F)ccc2C1=O",
    "TGI": "> 100 µM"
  },
  {
    "Compound": "O=c1c2cc3ccccc3n2c(=O)c2cc3ccccc3n12",
    "TGI": "> 100 µM"
  },
  {
    "Compound": "CN1C2=Nc3n(c4ccccc4[n+]3C)CN2c2ccccc21",
    "TGI": "44.1 µM"
  },
  {
    "Compound": "CCOC(=O)C1=C(C)NC(c2ccco2)=C(C#N)C1c1cccc([N+](=O)[O-])c1 (configuration not stated)",
    "TGI": "41.4 µM"
  }
]

# input Endpoint output: TGI of CC1(C)C=C(/C=C2/N(S(=O)(=O)C(F)(F)F)C(/C=C3/N(S(=O)(=O)C(F)(F)F)C(C)(C#N)CC3(C)C)=CC2(C)C)N=C1/C=C1/CC(C)(C)C(=O)N1 (configuration not stated) . Value?
# output 36 µM
